- Tested on: SF-295
- EXPERIMENT SUMMARY: NCI tumour cell line growth inhibition, 48 h
The source made the active and inactive calls. Rule as the data show it: active = GI50 up to about 1.1 µM and inactive = higher.
Form field: GI50 (one value per entry).

{"COMPOUND": "COCCOCC(=O)N(CCn1ccc(NC(c2ccccc2)(c2ccccc2)c2ccccc2)nc1=O)CCn1cnc2nc(N)[nH]c(=O)c21", "GI50": "> 100 µM (inactive)"}
{"COMPOUND": "COc1ccc(-c2oc3c(CC(=O)O)cccc3c(=O)c2OC)cc1", "GI50": "> 100 µM (inactive)"}
{"COMPOUND": "CCOC(=O)c1csc(NC(=O)CCN(CC)CC)n1", "GI50": "> 100 µM (inactive)"}
{"COMPOUND": "O=[N+]([O-])c1cc(Cl)ccc1S(=O)(=O)c1cc(Cl)cc2c1NCCC2", "GI50": "36.7 µM (inactive)"}
{"COMPOUND": "Cn1c(=O)n2n(c1=O)C(S(=O)(=O)c1ccccc1)C2 (stereo not given)", "GI50": "> 100 µM (inactive)"}
{"COMPOUND": "COc1c2c(cc3c1-c1c(cc4c(c1OC)OCO4)C1OC3C(C)C1C)OCO2.COc1cc2c(c(OC)c1OC)-c1c(cc3c(c1OC)OCO3)C1OC2C(C)C1C (stereo not given)", "GI50": "87.1 µM (inactive)"}
{"COMPOUND": "Cc1ccc(S(=O)(=O)C(C#N)c2nc3ccccc3nc2-n2cccn2)cc1 (stereo not given)", "GI50": "> 100 µM (inactive)"}
{"COMPOUND": "COC(=O)CCSC(=O)Nc1ccccc1Cl", "GI50": "> 100 µM (inactive)"}
{"COMPOUND": "O=[N+]([O-])/C(Cl)=C(/C(Cl)=C(Cl)Cl)N1CCCCC1", "GI50": "23.7 µM (inactive)"}
{"COMPOUND": "COC(=O)Nc1nc2ccccc2[nH]1 [CARBENDAZIM]", "GI50": "4.72 µM (inactive)"}

----------
- Test system: RPMI-8226
- EXPERIMENT SUMMARY: NCI tumour cell line growth inhibition, 48 h
Activity calls are given as the source filed them. Cut-off read from the data, not from the text of the source: active = GI50 up to about 1.1 µM and inactive = higher.
Outcomes: active, inactive

{"COMPOUND": "CO[C@]12C[C@H](CNC(=O)c3ccc[nH]3)O[C@H]1NC(=O)N2", "ANSWER LABEL": "inactive"}
{"COMPOUND": "O=C1/C(=C/c2ccc(Cl)cc2)CCCc2ccccc21", "ANSWER LABEL": "inactive"}
{"COMPOUND": "O=C(O)C1C(C(=O)O)C2C(=O)C=CC1N2Cc1ccccc1 (stereo unspecified)", "ANSWER LABEL": "inactive"}
{"COMPOUND": "C/C(=N\\[N+](C)(C)C)C(c1ccccc1)C1(c2ccccc2)C(c2ccccc2)=C1c1ccccc1 (stereo unspecified)", "ANSWER LABEL": "inactive"}
{"COMPOUND": "CC1=NN2C(=N)/C(=C/c3ccccc3)C(=O)N=C2S1", "ANSWER LABEL": "inactive"}
{"COMPOUND": "CCCCOc1ccc(OCCCCCCCCCC[N+](C)(C)C)cc1", "ANSWER LABEL": "active"}
{"COMPOUND": "O=C1C(Cl)=C(NCCF)C(=O)c2ncccc21", "ANSWER LABEL": "inactive"}
{"COMPOUND": "Cc1cc(C)cc(C(=N)c2ccccc2Cc2cccc3ccccc23)c1", "ANSWER LABEL": "inactive"}
{"COMPOUND": "N=C(N)N/N=C/c1c(-c2ccc(Cl)c([N+](=O)[O-])c2)nc2sccn12", "ANSWER LABEL": "inactive"}
{"COMPOUND": "O=C(Cc1cccs1)N[C@@H]1C(=O)N2C(C(=O)OC(c3ccccc3)c3ccccc3)=C(CO)CS[C@H]12", "ANSWER LABEL": "inactive"}
{"COMPOUND": "COc1ccc2c(=O)c3ccoc3[nH]c2c1", "ANSWER LABEL": "inactive"}

----------
Item-by-item account of GI50
- System: K562
- EXPERIMENT SUMMARY: NCI tumour cell line growth inhibition, 48 h
The source made the active and inactive calls. Rule as the data show it: active = GI50 up to about 1.1 µM and inactive = higher.

{"COMPOUND": "COc1ccc(-c2csc(-n3c(-c4ccccc4)nc4c(Br)cc(Br)cc4c3=O)n2)cc1", "SYSTEM NAME": "K562", "GI50": "20.8 µM (inactive)"}
{"COMPOUND": "NNC(=O)CC(=O)Nc1ccc(Cl)cc1", "SYSTEM NAME": "K562", "GI50": "48.6 µM (inactive)"}
{"COMPOUND": "Cc1cccc2c(=O)c3cccc([C@@H](C)C(=O)O)c3oc12", "SYSTEM NAME": "K562", "GI50": "> 100 µM (inactive)"}
{"COMPOUND": "C=C1C(=O)OC2C=C(CCC(C)=O)C(C)C(OC(C)=O)CC12 (stereo unspecified)", "SYSTEM NAME": "K562", "GI50": "3.86 µM (inactive)"}
{"COMPOUND": "CCOC(=O)C1S/C(=N\\C(=N)N[N+](=O)[O-])N=C1C (stereo unspecified)", "SYSTEM NAME": "K562", "GI50": "> 100 µM (inactive)"}
{"COMPOUND": "O=c1c(Cc2c(O)oc3cc(O)ccc3c2=O)c(O)oc2cc(O)ccc12", "SYSTEM NAME": "K562", "GI50": "64.9 µM (inactive)"}

----------
- System: DU-145
- EXPERIMENT SUMMARY: NCI tumour cell line growth inhibition, 48 h
Active and inactive are the calls of the source. Rule as the data show it: active = GI50 up to about 1.1 µM and inactive = higher.
Classes used: T = active, F = inactive

{"MOLECULE": "COC(=O)C1(C)C=CC(=O)C2(C)C1C(O)C1OC3CC(c4ccoc4)C(C)=C3C1(C)C2CC(=O)O (configuration not stated)", "SYSTEM NAME": "DU-145", "ANSWER LABEL": "F"}
{"MOLECULE": "COc1ccc(C2N(c3ccc(F)c([N+](=O)[O-])c3)C(=O)N3C(c4ccc(OC)cc4)N(c4ccc(F)c([N+](=O)[O-])c4)C(=O)N23)cc1 (configuration not stated)", "SYSTEM NAME": "DU-145", "ANSWER LABEL": "F"}
{"MOLECULE": "O=c1c(Cc2c(O)oc3cc(O)ccc3c2=O)c(O)oc2cc(O)ccc12", "SYSTEM NAME": "DU-145", "ANSWER LABEL": "F"}
{"MOLECULE": "C=C1C(=O)C23CC1CCC2C12CO[C@@]3(O)[C@@H](O)C1C(C)(C)C=CC2=O (some centres not stated)", "SYSTEM NAME": "DU-145", "ANSWER LABEL": "F"}
{"MOLECULE": "CN1C(=O)[C@@]2(C=CC3(CC2)OCCO3)c2ccccc21", "SYSTEM NAME": "DU-145", "ANSWER LABEL": "F"}
{"MOLECULE": "COc1ccc(/N=C2\\C(=O)C3=C(OC(C)(C)CC3)c3ccccc32)cc1", "SYSTEM NAME": "DU-145", "ANSWER LABEL": "T"}
{"MOLECULE": "CC(NC(=O)OC(C)(C)C)C(=O)NC(Cc1ccccc1)C(=O)NCC(=O)ON=C1CCCC1 (configuration not stated)", "SYSTEM NAME": "DU-145", "ANSWER LABEL": "F"}
{"MOLECULE": "COc1ccccc1NC(=O)CC(=O)N1N=C(C)C(/N=N/c2ccc(C(=O)O)cc2)C1=O (configuration not stated)", "SYSTEM NAME": "DU-145", "ANSWER LABEL": "F"}
{"MOLECULE": "O=C(CNc1ccc(Cl)cc1)Nn1c(-c2ccccc2)nc2ccccc2c1=O", "SYSTEM NAME": "DU-145", "ANSWER LABEL": "F"}
{"MOLECULE": "Cc1cc(-c2nc3ccccc3s2)ccc1N", "SYSTEM NAME": "DU-145", "ANSWER LABEL": "F"}
{"MOLECULE": "O=C(O)CSc1ccccc1C(=O)O", "SYSTEM NAME": "DU-145", "ANSWER LABEL": "F"}
{"MOLECULE": "Cc1nc2c(N3CCCC3)nc(N3CCNCC3)nc2nc1NCc1ccccc1", "SYSTEM NAME": "DU-145", "ANSWER LABEL": "F"}
{"MOLECULE": "CC(=O)OC[C@@H](COC(=O)/C=C/c1ccc(O)cc1)OC1OC(CO)C(O)C(O)C1O (some centres not stated)", "SYSTEM NAME": "DU-145", "ANSWER LABEL": "F"}
{"MOLECULE": "CCN(CC)/[N+]([O-])=N/OCOC(C)=O", "SYSTEM NAME": "DU-145", "ANSWER LABEL": "F"}
{"MOLECULE": "N/C(CCSCCSCC/C(N)=N\\O)=N\\O", "SYSTEM NAME": "DU-145", "ANSWER LABEL": "F"}
{"MOLECULE": "O=C(/C=C/c1cc2ccccc2o1)N1CCN(c2ccccn2)CC1", "SYSTEM NAME": "DU-145", "ANSWER LABEL": "F"}
{"MOLECULE": "CC1=NN2C(=N)/C(=C/c3ccccc3)C(=O)N=C2S1", "SYSTEM NAME": "DU-145", "ANSWER LABEL": "F"}
{"MOLECULE": "CCOC(=O)c1nc2ccccc2nc1Oc1ccc(C#N)cc1", "SYSTEM NAME": "DU-145", "ANSWER LABEL": "F"}
{"MOLECULE": "CCC(=O)Nc1cccc(NC(=O)c2c(Cl)c(Cl)c(Cl)c(Cl)c2-c2nc3ccccc3[nH]2)c1", "SYSTEM NAME": "DU-145", "ANSWER LABEL": "F"}
{"MOLECULE": "C=CCNC(=O)NC1=CSC2=NC(=O)C3(NN12)c1ccccc1-c1ccccc13", "SYSTEM NAME": "DU-145", "ANSWER LABEL": "F"}
{"MOLECULE": "CCOC(=O)/C(C(=O)c1ccc([N+](=O)[O-])cc1)=C(\\NS(=O)(=O)c1cc(C)c(Cl)cc1[S-])[n+]1ccc(N(C)C)cc1", "SYSTEM NAME": "DU-145", "ANSWER LABEL": "F"}
{"MOLECULE": "C#CC(O)/C=C/C(O)CCCC(O)CC#CC(O)C#CC(O)CCCC(O)/C=C/CCCCCC(=O)CCCCCCCCCCCCCC(O)C(O)C#CC(=O)O (configuration not stated)", "SYSTEM NAME": "DU-145", "ANSWER LABEL": "F"}
{"MOLECULE": "COc1cc2nc3n(c(=O)c2cc1OC)CCCCC3", "SYSTEM NAME": "DU-145", "ANSWER LABEL": "F"}
{"MOLECULE": "CO[C@@](c1ccccc1)(c1nc(C#N)c(N)o1)C(F)(F)F", "SYSTEM NAME": "DU-145", "ANSWER LABEL": "F"}
{"MOLECULE": "CCNC1(c2cccc(C)c2)OC(C)(C)c2cccc3cccc1c23 (configuration not stated)", "SYSTEM NAME": "DU-145", "ANSWER LABEL": "F"}
{"MOLECULE": "CCCC(=O)Nc1ncnc2c1ncn2C1OC2COP(=O)(O)OC2C1OC(=O)CCC (configuration not stated)", "SYSTEM NAME": "DU-145", "ANSWER LABEL": "F"}
{"MOLECULE": "O=C(Oc1ccccc1)c1cc2cc(CCl)ccc2oc1=O", "SYSTEM NAME": "DU-145", "ANSWER LABEL": "F"}
{"MOLECULE": "O=C(Cc1ccccc1)NCCCN(CCCCN(CCCNC(=O)Cc1ccccc1)C(=O)OCc1ccccc1)C(=O)OCc1ccccc1", "SYSTEM NAME": "DU-145", "ANSWER LABEL": "F"}
{"MOLECULE": "O=c1[nH]c2ccccc2nc1CBr", "SYSTEM NAME": "DU-145", "ANSWER LABEL": "F"}
{"MOLECULE": "Cc1c(C)c2c(c(N)c1C#N)C(=O)N(O)C2=O", "SYSTEM NAME": "DU-145", "ANSWER LABEL": "F"}
{"MOLECULE": "O=[N+]([O-])c1cc(Cl)ccc1S(=O)(=O)c1cc(Cl)cc2c1NCCC2", "SYSTEM NAME": "DU-145", "ANSWER LABEL": "F"}
{"MOLECULE": "COC(=O)C#Cc1cccc(OC)c1OC", "SYSTEM NAME": "DU-145", "ANSWER LABEL": "F"}
{"MOLECULE": "C(=N/Nc1ccc(-c2nc3ccccc3[nH]2)cc1)/c1c(-c2ccccc2)[nH]c2ccccc12", "SYSTEM NAME": "DU-145", "ANSWER LABEL": "T"}
{"MOLECULE": "NC(=O)c1ccc(/N=N/O)nc1", "SYSTEM NAME": "DU-145", "ANSWER LABEL": "F"}
{"MOLECULE": "O=c1[nH]nc(-c2ccccc2)n1/N=C/c1c[nH]c2ccccc12", "SYSTEM NAME": "DU-145", "ANSWER LABEL": "F"}
{"MOLECULE": "O=C1C(Cl)=C(NCCF)C(=O)c2ncccc21", "SYSTEM NAME": "DU-145", "ANSWER LABEL": "F"}
{"MOLECULE": "O=C(O)c1ccc(Nc2nc3ccc(C(F)(F)F)cc3nc2-c2ccccc2)cc1", "SYSTEM NAME": "DU-145", "ANSWER LABEL": "F"}
{"MOLECULE": "NCC(=O)Nc1ccc(Cl)cc1C(=O)c1ccc[nH]1", "SYSTEM NAME": "DU-145", "ANSWER LABEL": "F"}
{"MOLECULE": "Cc1ccc(C)n2c1nc1cc3ccccc3cc12", "SYSTEM NAME": "DU-145", "ANSWER LABEL": "F"}
{"MOLECULE": "COc1cc2c(cc1OC)C(C)N(C)c1c-2c(OC(C)=O)cc2cc(OC)c(OC)cc12 (configuration not stated)", "SYSTEM NAME": "DU-145", "ANSWER LABEL": "F"}
{"MOLECULE": "CCCCc1ccc(-n2sc3ncc(C)cc3c2=O)cc1", "SYSTEM NAME": "DU-145", "ANSWER LABEL": "F"}
{"MOLECULE": "CC(C)(C)OC(=O)C(C#N)C(=O)c1ccc(C(=O)O)[nH]1 (configuration not stated)", "SYSTEM NAME": "DU-145", "ANSWER LABEL": "F"}
